- method: solubility limit in the vehicle
- Type: physicochemical
- recorded conditions: in the particular vehicle used
reported property: solubility

Data request: Given the entry NCCC[C@](N)(C(=O)O)C(F)F , report its measured solubility.
Data returned: ~220 mg/mL

* * *

- method: in vitro
- recorded conditions: mouse, skin, topical or ocular
reported property: concentration at 4 h (ng/g)
Please state the figure in ng/g; there is no need to write the unit.

Data request: I have this compound here, NCCC[C@](N)(C(=O)O)C(F)F , and I need its recorded concentration at 4 h.
Data returned: 7.25e+06

* * *

- Tested on: human skin
- method: in vitro
- recorded conditions: human, skin, topical or ocular
reported property: concentration

Data request: Notebook: pull reported concentration for human skin, entry NCCC[C@](N)(C(=O)O)C(F)F
Data returned: 1360 µM
